pEC50 for assorted molecules
# Target system: human Farnesoid X Receptor (FXR) ligand binding domain (GST-FXR LBD) (Homo sapiens, UniProt Q96RI1)
# Construct: purchased Invitrogen
# Sequence (Q96RI1 193-472 isoform Q96RI1-2): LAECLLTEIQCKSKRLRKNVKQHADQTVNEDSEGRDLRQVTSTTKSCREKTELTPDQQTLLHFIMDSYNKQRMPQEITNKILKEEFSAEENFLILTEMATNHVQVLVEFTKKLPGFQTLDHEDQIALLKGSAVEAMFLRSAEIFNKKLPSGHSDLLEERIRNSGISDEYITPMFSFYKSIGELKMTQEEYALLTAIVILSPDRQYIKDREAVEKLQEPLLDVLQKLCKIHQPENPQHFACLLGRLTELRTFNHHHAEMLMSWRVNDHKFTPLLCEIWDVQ
# Test name: Human GST-FXR LBD co-activator interaction assay (HTRF)
# Format: biochemical
# Condition summary: GST-FXR LBD / biotin-SRC-1 peptide FRET; response relative to GW4064; read-out: FXR Co-activator interaction assay (EC50)
pEC50: −log10 of the molar value.
Property name: pEC50

>  <Molecule>
Cc1c(N2C3CC[C@H]2CC(OCc2c(-c4ccccc4C(F)(F)F)noc2C2CC2)C3)ccc2oc(C(=O)O)cc12 (stereo partly drawn) [Example 28-12]

>  <Property name>
pEC50

>  <Quantitative readout>
8.55

$$$$
>  <Molecule>
O=C(O)c1cc(F)c2nc(N3C4CC[C@H]3C[C@H](OCc3c(C5CCCCC5C(F)(F)F)noc3C3CC3)C4)sc2c1 (stereo partly drawn) [Example 8-1]

>  <Property name>
pEC50

>  <Quantitative readout>
8.40

$$$$
>  <Molecule>
CC1CC1c1noc(C2CC2)c1CO[C@@H]1CC2CC[C@@H](C1)N2c1nc2c(F)cc(C(=O)O)cc2s1 (stereo partly drawn) [Example 12-1]

>  <Property name>
pEC50

>  <Quantitative readout>
7.60

$$$$
>  <Molecule>
Cn1nc(C(=O)O)c2ccc(N3[C@@H]4CC[C@H]3C[C@@H](OCc3c(-c5ccccc5C(F)(F)F)noc3C3CC3)C4)cc21 [Example 28-26]

>  <Property name>
pEC50

>  <Quantitative readout>
8.92

$$$$
>  <Molecule>
Cc1c(N2C3CC[C@H]2CC(OCc2c(-c4ccccc4OC(F)(F)F)noc2C2CC2)C3)ccc2oc(C(=O)O)cc12 (stereo partly drawn) [Example 28-11]

>  <Property name>
pEC50

>  <Quantitative readout>
8.89

$$$$
>  <Molecule>
O=C(O)c1ccc(N2C3CC[C@H]2CC(OCc2c(-c4ccccc4Cl)noc2C2CC2)C3)nc1 (stereo partly drawn) [Example 30-21]

>  <Property name>
pEC50

>  <Quantitative readout>
8.52

$$$$
>  <Molecule>
Cc1cccc(C)c1-c1noc(C2CC2)c1COC1CC2CC[C@@H](C1)N2c1ccc(C(=O)O)cn1 (stereo partly drawn) [Example 30-15]

>  <Property name>
pEC50

>  <Quantitative readout>
8.05

$$$$
>  <Molecule>
O=C(O)c1ccnc(N2C3CC[C@H]2CC(OCc2c(-c4ccccc4C(F)(F)F)noc2C2CC2)C3)c1 (stereo partly drawn) [Example 20B]

>  <Property name>
pEC50

>  <Quantitative readout>
6.48

$$$$
>  <Molecule>
COC(=O)c1cnc(N2C3CC[C@H]2CC(OCc2c(-c4ccccc4OC(F)F)noc2C2CC2)C3)cn1 (stereo partly drawn) [Example 22-11A]

>  <Property name>
pEC50

>  <Quantitative readout>
6.96

$$$$
>  <Molecule>
Cc1cc(C(=O)O)cc2sc(N3C4CC[C@H]3CC(OCc3c(-c5ccccc5C(F)(F)F)noc3C3CC3)C4)nc12 (stereo partly drawn) [Example 30-31]

>  <Property name>
pEC50

>  <Quantitative readout>
8.15

$$$$
>  <Molecule>
O=C(O)c1cnn2ccc(N3[C@@H]4CC[C@H]3C[C@@H](OCc3c(-c5ccccc5OC(F)(F)F)noc3C3CC3)C4)cc12 [Example 32-2]

>  <Property name>
pEC50

>  <Quantitative readout>
8.40

$$$$
>  <Molecule>
Cn1nc(C(=O)O)c2ccc(N3C4CC[C@H]3CC(OCc3c(-c5ccccc5OC(F)(F)F)noc3C3CC3)C4)cc21 (stereo partly drawn) [Example 28-25]

>  <Property name>
pEC50

>  <Quantitative readout>
8.96

$$$$
>  <Molecule>
O=C(O)c1ccc2c(N3C4CC[C@H]3CC(OCc3c(-c5ccccc5OC(F)(F)F)noc3C3CC3)C4)ncnc2c1 (stereo partly drawn) [Example 30-56]

>  <Property name>
pEC50

>  <Quantitative readout>
8.24

$$$$
>  <Molecule>
COC(=O)c1cc(C)nc(N2C3CC[C@H]2CC(OCc2c(-c4ccccc4OC(F)F)noc2C2CC2)C3)n1 (stereo partly drawn) [Example 22-5]

>  <Property name>
pEC50

>  <Quantitative readout>
7.57

$$$$
>  <Molecule>
Cc1nc(N2[C@@H]3CC[C@H]2C[C@@H](OCc2c(-c4c(F)cccc4F)noc2C2CC2)C3)ccc1C(=O)O [Example 30-47]

>  <Property name>
pEC50

>  <Quantitative readout>
6.92

$$$$
>  <Molecule>
Cc1cc(C(N)=O)nc(N2C3CC[C@H]2C[C@H](OCc2c(-c4ccccc4OC(F)F)noc2C2CC2)C3)n1 [Example 5-3]

>  <Property name>
pEC50

>  <Quantitative readout>
7.70

$$$$
>  <Molecule>
O=C(O)c1cnc2ccc(N3C4CC[C@H]3CC(OCc3c(-c5ccccc5OC(F)(F)F)noc3C3CC3)C4)nn12 (stereo partly drawn) [Example 30-60]

>  <Property name>
pEC50

>  <Quantitative readout>
7.03

$$$$
>  <Molecule>
Cn1nc(C(=O)O)c2cc(N3C4CC[C@H]3CC(OCc3c(-c5ccccc5OC(F)(F)F)noc3C3CC3)C4)ccc21 (stereo partly drawn) [Example 28-16]

>  <Property name>
pEC50

>  <Quantitative readout>
7.20

$$$$
>  <Molecule>
COC(=O)c1ccnc(N2C3CC[C@H]2CC(OCc2c(-c4ccccc4OC(F)F)noc2C2CC2)C3)n1 (stereo partly drawn) [Example 22-2A]

>  <Property name>
pEC50

>  <Quantitative readout>
7.22

$$$$
>  <Molecule>
O=C(O)c1cnc(N2C3CC[C@H]2CC(OCc2c(-c4ccccc4C(F)(F)F)noc2C2CC2)C3)cc1C(F)(F)F (stereo partly drawn) [Example 21-4B]

>  <Property name>
pEC50

>  <Quantitative readout>
7.70

$$$$
>  <Molecule>
Cc1ccccc1-c1noc(C2CC2)c1CO[C@H]1C[C@H]2CC[C@@H](C1)N2c1nc2ccc(C(=O)O)cc2s1 [Example 30-4]

>  <Property name>
pEC50

>  <Quantitative readout>
9.15

$$$$
>  <Molecule>
O=C(O)c1ccc2nc(N3C4CC[C@H]3C[C@H](OCc3c(C5CC5c5ccccc5)noc3C3CC3)C4)sc2c1 (stereo partly drawn) [Example 10B]

>  <Property name>
pEC50

>  <Quantitative readout>
7.01

$$$$
>  <Molecule>
COC(=O)c1cnc(N2C3CC[C@H]2CC(OCc2c(-c4c(F)cccc4F)noc2C2CC2)C3)nc1 (stereo partly drawn) [Example 22-14A]

>  <Property name>
pEC50

>  <Quantitative readout>
7.15

$$$$
>  <Molecule>
COC(=O)c1ccc(N2C3CC[C@H]2C[C@H](OCc2c(-c4ccccc4OC(F)(F)F)noc2C2CC2)C3)nc1 [Example 18-3A]

>  <Property name>
pEC50

>  <Quantitative readout>
8.10

$$$$
>  <Molecule>
COC(=O)c1ccnc(N2C3CC[C@H]2CC(OCc2c(-c4ccccc4C(F)(F)F)noc2C2CC2)C3)c1 (stereo partly drawn) [Example 20A]

>  <Property name>
pEC50

>  <Quantitative readout>
6.77

$$$$
>  <Molecule>
O=C(O)c1cccc(N2[C@@H]3CC[C@H]2C[C@@H](OCc2c(-c4ccccc4OC(F)F)noc2C2CC2)C3)n1 [Example 30-27]

>  <Property name>
pEC50

>  <Quantitative readout>
8.15

$$$$
>  <Molecule>
COc1cc(C(=O)O)cc2sc(N3C4CC[C@H]3CC(OCc3c(-c5ccccc5C(F)(F)F)noc3C3CC3)C4)nc12 (stereo partly drawn) [Example 2-2B]

>  <Property name>
pEC50

>  <Quantitative readout>
8.52

$$$$
